# System: Enterococcus sp.
# Measurement Description: in vitro antibacterial evaluation, MIC by broth dilution
# Assay type: cell-based
# Conditions Used: strain GC 4556; broth dilution, 18 hours at 35° C.
The label is t for MIC Enterococcus faecium (GC 4556) below 30 µg/mL and f for MIC Enterococcus faecium (GC 4556) equal to or exceeding 30 µg/mL.

Molecule	Label Value
COc1cc(C2OCC3OC(OC4C(CO)OC(Oc5ccc(CC6NC(=O)C(C(C)c7ccccc7)NC(=O)CNC(=O)C(CO)NC(=O)C(C(O)C7CNC(=N)N7C7OC(CO)C(O)C(O)C7O)NC(=O)C(C(O)C7CNC(=N)N7)NC6=O)cc5)C(O)C4O)C(O)C(O)C3O2)cc([N+](=O)[O-])c1O (stereo not shown)	f
CC(C1CCCCC1)C1NC(=O)CNC(=O)C(CO)NC(=O)C(C(O)C2CNC(=N)N2C2OC(CO)C(O)C(O)C2O)NC(=O)C(C(O)C2CNC(=N)N2)NC(=O)C(C[C@H]2CC[C@@H](O)CC2)NC1=O (stereo partly shown)	f
CC(c1ccccc1)C1NC(=O)CNC(=O)C(CO)NC(=O)C(C(O)C2CNC(=N)N2C2OC(CO)C(O)C(O)C2O)NC(=O)C(C(O)C2CNC(=N)N2)NC(=O)C(Cc2ccc3oc(C=C(c4ccccc4)c4ccccc4)nc3c2)NC1=O (stereo not shown)	f
CC(c1ccccc1)C1NC(=O)CNC(=O)C(CO)NC(=O)C(C(O)C2CNC(=N)N2C2OC(CO)C(O)C(O)C2O)NC(=O)C(C(O)C2CNC(=N)N2)NC(=O)C(Cc2ccc3oc(SCc4ccccc4)nc3c2)NC1=O (stereo not shown)	f
CC(c1ccccc1)C1NC(=O)CNC(=O)C(CO)NC(=O)C(C(O)C2CNC(=N)N2C2OC(CO)C(O)C(O)C2O)NC(=O)C(C(O)C2CNC(=N)N2)NC(=O)C(Cc2ccc(OC3OC(CO)C(OC4OC5COC(c6ccc(C(C)(C)C)cc6)OC5C(O)C4O)C(O)C3O)cc2)NC1=O (stereo not shown)	t
CC(c1ccccc1)C1NC(=O)CNC(=O)C(CO)NC(=O)C(C(O)C2CNC(=N)N2C2OC(CO)C(O)C(O)C2O)NC(=O)C(C(O)C2CNC(=N)N2)NC(=O)C(Cc2ccc3oc(-c4ccccc4OC4OC(CO)C(O)C(O)C4O)nc3c2)NC1=O (stereo not shown)	f
CC(c1ccccc1)C1NC(=O)CNC(=O)C(CO)NC(=O)C(C(O)C2CNC(=N)N2C2OC(CO)C(O)C(O)C2O)NC(=O)C(C(O)C2CNC(=N)N2)NC(=O)C(Cc2ccc3oc(-c4cccc([N+](=O)[O-])c4)nc3c2)NC1=O (stereo not shown)	f
CC(c1ccccc1)C1NC(=O)CNC(=O)C(CO)NC(=O)C(C(O)C2CNC(=N)N2C2OC(CO)C(O)C(O)C2O)NC(=O)C(C(O)C2CNC(=N)N2)NC(=O)C(Cc2ccc3oc(-c4ccc(Br)cc4)nc3c2)NC1=O (stereo not shown)	f
COc1cccc(C2OC3C(OC4C(CO)OC(Oc5ccc(CC6NC(=O)C(C(C)c7ccccc7)NC(=O)CNC(=O)C(CO)NC(=O)C(C(O)C7CNC(=N)N7C7OC(CO)C(O)C(O)C7O)NC(=O)C(C(O)C7CNC(=N)N7)NC6=O)cc5)C(O)C4O)OC(CO)C(O)C3O2)c1 (single isomer, unassigned) [Example 137a]	f
CC(C)=CCOc1cccc(C2OCC3OC(OC4C(CO)OC(Oc5ccc(CC6NC(=O)C(C(C)c7ccccc7)NC(=O)CNC(=O)C(CO)NC(=O)C(C(O)C7CNC(=N)N7C7OC(CO)C(O)C(O)C7O)NC(=O)C(C(O)C7CNC(=N)N7)NC6=O)cc5)C(O)C4O)C(O)C(O)C3O2)c1 (stereo not shown)	t
Cc1cc(C2OCC3OC(OC4C(CO)OC(Oc5ccc(CC6NC(=O)C(C(C)c7ccccc7)NC(=O)CNC(=O)C(CO)NC(=O)C(C(O)C7CNC(=N)N7C7OC(CO)C(O)C(O)C7O)NC(=O)C(C(O)C7CNC(=N)N7)NC6=O)cc5)C(O)C4O)C(O)C(O)C3O2)ccc1[N+](=O)[O-] (stereo not shown)	f
CCOc1cc(C2OCC3OC(OC4C(CO)OC(Oc5ccc(CC6NC(=O)C(C(C)c7ccccc7)NC(=O)CNC(=O)C(CO)NC(=O)C(C(O)C7CNC(=N)N7C7OC(CO)C(O)C(O)C7O)NC(=O)C(C(O)C7CNC(=N)N7)NC6=O)cc5)C(O)C4O)C(O)C(O)C3O2)ccc1OC (stereo not shown)	f
Cc1ccc(Oc2ccc(C3OCC4OC(OC5C(CO)OC(Oc6ccc(CC7NC(=O)C(C(C)c8ccccc8)NC(=O)CNC(=O)C(CO)NC(=O)C(C(O)C8CNC(=N)N8C8OC(CO)C(O)C(O)C8O)NC(=O)C(C(O)C8CNC(=N)N8)NC7=O)cc6)C(O)C5O)C(O)C(O)C4O3)cc2)cc1 (stereo not shown)	t
